Numbers sourced from patent US20050069542A1.

Biological target: T1, flag-tagged soluble TL3 (amino acids 105-251 of SEQ ID NO:234) (Homo sapiens (Human), UniProt O75888 105-250)
T1 construct: Heterologous flag-tagged control protein, immobilized in the ELISA; also called flagged tagged TL-3; not shown: Flag tag
T1 sequence: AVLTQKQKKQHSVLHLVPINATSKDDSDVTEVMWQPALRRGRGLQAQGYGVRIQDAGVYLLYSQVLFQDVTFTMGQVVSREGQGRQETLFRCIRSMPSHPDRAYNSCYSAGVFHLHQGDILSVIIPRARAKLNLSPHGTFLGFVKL
Assay: phage ELISA on immobilized flag-tagged soluble TL3
measure.name: binding result

* GMBC626 (scFv) scFv: EVQLVQSGGGLVKPGESLRLSCEASGFEFNYAWMSWVRQAPGKGLEWVGRSRSEASGGTTDYAAPLQDRFTISRDDSKNTLYLQVNSLKIEDTGVYFCKWEKSEYYGMDVWGRGTPVTVSSGGGGSGGGGSGGGGSQSVLTQPASVSGSPGQSITISCTGTSSDVGGYNYVSWYQQHPGKAPKLMIYEGSKRPSGVSNRFSGSKSGNTASLTISGLRAEDEADYYCSSYTTKSTQVFGGGTKLTVLG | no binding
* GMCC105 (scFv) scFv: QVQLVQSGGGVVQPGRSLRLSCTASGFNLGSHGMHWVRQAPGKGLEWVAVIGFDGTTKYYVDSVKGRFTISRDNSRNTLSLQMNSLRAEDTAVYYCVREDYYYDSSGYYFDYWGRGTLVTVSSGGGGSGGGGSGGGGSALSSELTQDPFVSVALGQTVRIACRGDSLRDSYASWYQQKPGQAPRLLVYGNNLRPSGIPGRFSGSSSGDTASLSITETQAGDEADYYCSSRGNSTSRLYVFGTGTKLTVLG | no binding
* GMBC618 (scFv) scFv: EVQLVQSGGGLVKPGGSLRLSCAASGFKFDDAWMNWVRQAPGKGLEWVGRIKSKRSGGTIDYAAPVKDRFTISRDDSKNTLYLQMNSLRTEDTALYYCTWDWDFYYGMNVWGRGTLVTVSSGGGGSGGGGSGGGGSQSVLTQPPSASGTPGQRVTISCSGSSSNIGSNTVNWYQRLPGAAPQLLIYNNDQRPSGIPDRFSGSKSGTSGSLVISGLQSEDEADYYCASWDDSLNGRVFGGGTKLTVLG | no binding
